Quick reference for inhibition among some compounds
TARGET SYSTEM: Endonuclease 8-like 1 (Homo sapiens);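 further: fluorescence at 594 nm from quenched duplex DNA oligonucleotides released by NEIL1 cleavage and strand separation, reported as reduction of this enzyme activity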
CONDITION SUMMARY: Compound Concentration 10.0 uM, Hit No
PROPERTY LABEL: inhibition

| COMPOUND | REPORTED VALUE |
| --- | --- |
| O=c1ccc2c(OCCCCOc3ccccc3)c3ccoc3cc2o1 | -4.29% |
| CS(=O)(=O)Nc1c(O)ccc2c1CCCC2C1=NCCN1 (stereo unspecified) | 2.08% |
| C[C@H]1CN(C[C@H](Cc2ccccc2)C(=O)NCC(=O)O)CC[C@@]1(C)c1cccc(O)c1 | -4.44% |
| Cc1cnc(-c2cc(Cl)ccc2F)cc1-n1c(=O)n(CC(N)=O)c2ccccc21 | -5.78% |
| O=C(Nc1ccc(-n2nc(C(F)(F)F)cc2C(F)(F)F)cc1)c1ccncc1F | 3.86% |
| C[C@H](CCC(=O)O)[C@H]1CC[C@H]2[C@@H]3CC[C@@H]4C[C@H](O)CC[C@]4(C)[C@H]3CC[C@]12C | 10% |
| O=S1(=O)NCN(C2CC2)c2ccc(F)cc21 | 3.86% |
| CCc1nc2c(o1)CC(c1ccc(C)cc1C)CC2=O (stereo unspecified) | 6.08% |
| CCOC(=O)c1cnn(-c2ccc(NC(=O)C(Cl)=C(Cl)Cl)cc2)c1C(F)(F)F | -3.99% |
| Clc1ccccc1C(c1ccccc1)(c1ccccc1)n1cccn1 | 5.94% |
| C=CC(=O)Nc1ccc2[nH]c(=O)n(C3CCN(Cc4ccc(-c5nc6cc[nH]c(=O)c6cc5-c5ccccc5)cc4)CC3)c2c1 | 3.12% |
| COc1cc2nc(N3CCN(C(=O)c4ccco4)CC3)nc(N)c2cc1OC | 5.73% |
| COc1cc2nc(N(C)CCCNC(=O)C3CCCO3)nc(N)c2cc1OC (stereo unspecified) | -3.84% |
| c1cc(OCCCN2CCCCC2)ccc1CN1CCCCC1 | -2.58% |
| O=C(NS(=O)(=O)N1CCC1)c1cc(C2CC2)c(OCC23CC4CC(CC(C4)C2)C3)cc1F | 7.57% |
| COCCCN1CCC(NC(=O)c2cc(Cl)c(N)c3c2OCC3)CC1 | -6.73% |
| Cc1nc2ccc(Oc3ccc(F)cc3)cc2c(=O)n1C[C@H]1CCCN(C(C)C)C1 | 6.38% |
| CN1CCN(C(=O)C(C)(C)c2ccc(C(=O)Nc3cn4cc(-c5ccncc5)ccc4n3)cc2)CC1 | 1.07% |
| Cc1c(C(=O)Nc2cccc(C(F)(F)F)c2)cc(-c2ccccc2)n1CCCN1CCOCC1 | 0.00926% |
| Cc1oc2ccccc2c1Cc1cc(I)c(OCC(=O)O)c(I)c1 | 0.619% |
| COc1cc([N+](=O)[O-])ccc1NC(=O)c1ccccc1O | 3.86% |

----------
Quick reference for inhibition among some molecules
TARGET SYSTEM: Uracil-DNA glycosylase (Homo sapiens) (UniProt P13051);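 further: UNG excision on a quenched double-stranded DNA oligo probe, with APE1 added for strand incision and turnover, read as fluorescence at 594 nm as strands separate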
Sequence (P13051 whole entry): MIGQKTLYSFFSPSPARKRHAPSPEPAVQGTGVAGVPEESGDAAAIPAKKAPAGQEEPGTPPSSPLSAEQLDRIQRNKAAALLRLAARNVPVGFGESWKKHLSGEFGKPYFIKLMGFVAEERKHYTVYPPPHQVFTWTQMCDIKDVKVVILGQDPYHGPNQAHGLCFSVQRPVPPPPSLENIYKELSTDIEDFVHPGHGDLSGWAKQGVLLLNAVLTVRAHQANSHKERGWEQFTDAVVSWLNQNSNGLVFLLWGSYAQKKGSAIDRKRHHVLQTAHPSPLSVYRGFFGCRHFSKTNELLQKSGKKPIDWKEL
CONDITION SUMMARY: Compound Concentration 1.0 uM, Hit No

| MOLECULE | inhibition, % |
| --- | --- |
| CN1C(=O)[C@@H](N2CCc3c(nn(Cc4ccccc4)c3Br)C2=O)COc2ccccc21 | -2.6 |
| NC(=O)c1ccc2nc(-c3ccc(C4(N)CCC4)cc3)c(-c3ccccc3)n2n1 | 3.74 |
| Cc1cc(Nc2nccc(C)n2)cc(-c2cnc([C@@]3(O)CC[C@H](C(=O)O)C(C)(C)C3)s2)c1 | 2.21 |
| CCOc1cn(-c2ccc(F)cc2C)nc1C(=O)Nc1ccc(Oc2ccnc3cc(OC)c(OC)cc23)c(F)c1 | 1.39 |
| CNCc1ccccc1-c1csc([C@H](C)Nc2nc(C)nc3cc(OC)c(OC)cc23)c1 | 6.69 |
| O=S(=O)(NC1CCC(c2cc(F)ccc2F)(S(=O)(=O)c2ccc(Cl)cc2)CC1)C(F)(F)F (centres undefined) | 0.604 |
| CS(=O)(=O)NCC[C@H](NC(=O)c1cncc2c1cnn2-c1ccc(F)cc1)c1ccnc(S(C)(=O)=O)c1 | -0.0979 |
| CN(C)C(=O)/C(C#N)=C/c1ccc(-c2nc3cnc4c(ccn4C)c3n2C2CCCCC2)o1 | -0.285 |
| COc1cnccc1Nc1nc(-c2nn(Cc3c(F)cc(OCCO)cc3F)c3ccccc23)ncc1OC | 1.12 |
